Target: biotinylated CD59 (Homo sapiens, UniProt P13987)
Construct: Recombinant soluble human CD59 with an additional C-terminal cysteine residue
Sequence (P13987 26-102 limits assumed): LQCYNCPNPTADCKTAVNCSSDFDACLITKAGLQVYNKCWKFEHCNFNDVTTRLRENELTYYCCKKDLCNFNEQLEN
Assay: mRNA-display cyclic peptide screen against CD59-biotin, NGS abundance after 6th selection round
Conditions: NGS sample Seq I, sheet R6 (6th selection round)
Values of Counts (raw counts for peptide sequence), Seq I strictly less than 50 map to y, and values of at least 50 map to n.

q: Determine whether this sequence shows Counts (raw counts for peptide sequence), Seq I lower than 50 (ties excluded): ISGGRNWRAG
a: n

q: Item SAWGNRQIQYH : Counts (raw counts for peptide sequence), Seq I beneath 50, strictly?
a: n

q: is_below(Counts (raw counts for peptide sequence), Seq I, 50) for SYGGRTFIYAWS ?
a: n

q: Please let me know if CYGGRTFIYAWL shows Counts (raw counts for peptide sequence), Seq I below 50.
a: y

q: Given GYLNECHALYTR , is recorded Counts (raw counts for peptide sequence), Seq I strictly lower than 50?
a: n

q: For this sequence, is Counts (raw counts for peptide sequence), Seq I lower than 50? DPICTRYNDPR
a: y

q: Criterion: Counts (raw counts for peptide sequence), Seq I strictly below 50. Is it met by CYGDRTFIYAWS ?
a: n

q: In the record for CYAAGSASWSRG , is Counts (raw counts for peptide sequence), Seq I less than 50?
a: n

q: For HAFGSRDIAYY , is the recorded Counts (raw counts for peptide sequence), Seq I below the cut-off of 50?
a: n

q: Consider WRDRFGQCVL . Does its Counts (raw counts for peptide sequence), Seq I lie strictly below 50?
a: y

q: Strictly below 50: is that where Counts (raw counts for peptide sequence), Seq I of PAWGNRQIQYY sits?
a: n

q: For DSRNQCHTWKT , is the recorded Counts (raw counts for peptide sequence), Seq I below the cut-off of 50?
a: n

q: Identify whether the sequence VVHGGKDYQWS records Counts (raw counts for peptide sequence), Seq I below 50.
a: n

q: Consider CYGNSHAS . Does its Counts (raw counts for peptide sequence), Seq I lie strictly below 50?
a: y

q: Dear colleague, could you confirm whether Counts (raw counts for peptide sequence), Seq I of CKIDVYGRTWS falls below 50? Thanks.
a: n

q: Below 50 on Counts (raw counts for peptide sequence), Seq I? Entry AISGGRDYTRG
a: y

q: # check: Counts (raw counts for peptide sequence), Seq I < 50 for CFAGRLAIDAV
a: n

q: Is Counts (raw counts for peptide sequence), Seq I of SWTWGNRSSVSG strictly below 50?
a: n

q: Please state whether Counts (raw counts for peptide sequence), Seq I is below 50 for FVRGDMYSVLG
a: y

q: Below 50 on Counts (raw counts for peptide sequence), Seq I? Entry YSSGSRHWTRS
a: n

q: Answer whether the sequence CFAGRLTIDAAAAAAARTGGG has Counts (raw counts for peptide sequence), Seq I strictly less than 50
a: n

q: # TODO verify Counts (raw counts for peptide sequence), Seq I < 50 strictly for this sequence: CFQNRMAYGDI
a: y

q: Given DPYCPFFPEFR , is recorded Counts (raw counts for peptide sequence), Seq I strictly lower than 50?
a: n

q: Please check: Counts (raw counts for peptide sequence), Seq I for FVTGNRDHTHG , strictly under 50 or not?
a: y

q: Consider CYTYRSLDPQSV . Does its Counts (raw counts for peptide sequence), Seq I lie strictly below 50?
a: y

q: Please check: Counts (raw counts for peptide sequence), Seq I for FVRGDLYPVLG , strictly under 50 or not?
a: n

q: Item CFVSRTQIGSV : Counts (raw counts for peptide sequence), Seq I beneath 50, strictly?
a: n

q: State whether 50 exceeds Counts (raw counts for peptide sequence), Seq I recorded for FVRGDLYSVLS .
a: y

q: Decide: Counts (raw counts for peptide sequence), Seq I of STRRDRLGLTC strictly below 50?
a: n

q: Hi there! Is Counts (raw counts for peptide sequence), Seq I for RTCHLRHDGPHA below 50, do you know?
a: n

q: Is Counts (raw counts for peptide sequence), Seq I of LAWGNRQIQYY strictly below 50?
a: n

q: Consider the sequence GRYNECHFITS . Is its Counts (raw counts for peptide sequence), Seq I strictly less than 50?
a: n

q: Given the entry WAKGSDTFTSG , would its reported Counts (raw counts for peptide sequence), Seq I be below 50?
a: n

q: Threshold test, Counts (raw counts for peptide sequence), Seq I < 50: CFVNRLGSAESR
a: n

q: Consider CLRKTRDILSV . Does its Counts (raw counts for peptide sequence), Seq I lie strictly below 50?
a: n

q: Report whether reported Counts (raw counts for peptide sequence), Seq I is lower than 50 (strictly) for WSTRERQISC
a: n

q: Given GRLNECHVTWP , is recorded Counts (raw counts for peptide sequence), Seq I strictly lower than 50?
a: y

q: is_below(Counts (raw counts for peptide sequence), Seq I, 50) for FVTGNRDNTRG ?
a: n

q: Is the reported Counts (raw counts for peptide sequence), Seq I for TLSTNRDLIRLPAAAAAAARTGGG strictly below 50?
a: n

----------
Molecular target: biotinylated CD59 (Homo sapiens, UniProt P13987)
Construct: Recombinant soluble human CD59 with an additional C-terminal cysteine residue
Sequence (P13987 26-102 limits assumed): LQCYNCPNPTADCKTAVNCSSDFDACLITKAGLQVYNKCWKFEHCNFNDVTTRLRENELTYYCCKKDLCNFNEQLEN
Experiment: mRNA-display cyclic peptide screen against CD59-biotin, NGS abundance after 6th selection round
Settings: percentage of the pool averaged across the two sequencing samples, sheet R6
What Percentage Average was measured for each of the following?
Give the number; % is assumed, so skip it.

The sequence listed as CYGGRTFIYEWS has a reported Percentage Average of 0.040

Form: sequence = EIRGALNWVRG ; Percentage Average = 0.136

Looking up WILGSRWWTQR , I see its Percentage Average listed as 0.021

Percentage Average reported for this sequence CFASRLTIDAV : 0.030

Reported Percentage Average of CFQNRVSGSGAL : 0.118

The sequence identified as SARGNRQIQYY registered its Percentage Average at 0.027

Lab book: Percentage Average of CFSRRLTAGAV noted as 0.030

Given item ISRGDARYTWG , the value recorded as its Percentage Average is 0.021

Given item WSTRTFTCRTLL , the value recorded as its Percentage Average is 0.420

Lab note: measured Percentage Average of SSYRELAHLSC was 0.126

Recorded result, IQSGSQSWSRG , Percentage Average: 0.036

Note to self: Percentage Average recorded for SAWGNRQTQYY was 1.156

Sample TYGSRFCPQYCAAAAAAARTGGG ; Percentage Average observed: 0.034

According to the records, this sequence AVHGSSFYVWG displays Percentage Average of 0.038

Recorded Percentage Average (sequence YIVGSSDYTRG ): 0.402

Field Percentage Average (entry SKNGLTFLCN ) reads 0.196

The value of Percentage Average measured for the sequence WATGSATFSSG turned out to be 0.702

The sequence CFAARARNNQTV showed Percentage Average equal to 0.092

Note to self: Percentage Average recorded for YVFWSRTHTYG was 0.168

Notebook: IAFGSRFHSYQ , Percentage Average read as 0.616

Quick note, Percentage Average for CYTAGSASWSRG landed at 0.703

Record SWTWGNRNSVRG . Reported Percentage Average: 0.054

Field Percentage Average (entry CFAGRPTIDAV ) reads 0.023

Lab book: Percentage Average of IATGSKLYAKG noted as 0.040

Form field Percentage Average, entry CFLYRNNPDSV : 0.068

Lab book: Percentage Average of CFQNRVTSDSAK noted as 0.151

The sequence identified as CLRLHREPGSL registered its Percentage Average at 0.119

Percentage Average reported for this sequence VAHGSKKSQFW : 0.096

Quick note, Percentage Average for HVFGNGSFTRG landed at 0.033

Given item TILGNKHYVRG , the value recorded as its Percentage Average is 0.150

Reported Percentage Average ( FVTGNRNHTRG ) = 0.030

Lookup result for CFAGRLTTDAV ; measured Percentage Average: 0.044

The recorded Percentage Average for LLGTRDYVRLWH is 0.142

For record VWGNRWTRIYW the listed Percentage Average is 0.036

// field: Percentage Average; key: TISGGRDYTRG ; value = 0.941

Query HCWVRGGRNYT yields Percentage Average of 0.019

Measured Percentage Average, CYGGRTLIYAWS : 0.023

Measured Percentage Average of CFSTRLSRSYGT : 0.021

// field: Percentage Average; key: CFAFRLSQTSV ; value = 0.162

// field: Percentage Average; key: CYGGRTFTYAWS ; value = 0.274

Kindly note the recorded Percentage Average for LCYVKGSKDFT , which is 0.023

Reported Percentage Average for SAWGNRQVQYY was 0.113

# credit: paper PMC12207370
